The measurements presented in this section are drawn from ChEMBL document CHEMBL4428109.

Target or test system: Peroxisome proliferator-activated receptor delta (Homo sapiens, UniProt Q03181)
Sequence (Q03181 whole entry, the tested form may be a part): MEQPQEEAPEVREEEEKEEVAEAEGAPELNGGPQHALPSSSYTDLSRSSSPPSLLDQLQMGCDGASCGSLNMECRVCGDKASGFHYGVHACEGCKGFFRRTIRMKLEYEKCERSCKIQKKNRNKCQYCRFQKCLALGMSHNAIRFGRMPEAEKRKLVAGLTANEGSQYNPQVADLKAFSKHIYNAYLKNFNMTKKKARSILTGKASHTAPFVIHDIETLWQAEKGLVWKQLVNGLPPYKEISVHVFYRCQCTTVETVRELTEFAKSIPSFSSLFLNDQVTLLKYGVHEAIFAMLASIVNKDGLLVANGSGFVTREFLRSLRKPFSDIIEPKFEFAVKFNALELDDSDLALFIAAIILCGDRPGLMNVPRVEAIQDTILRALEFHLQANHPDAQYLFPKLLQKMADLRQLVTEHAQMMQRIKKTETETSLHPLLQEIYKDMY
Assay explanation: Agonist activity at N-terminal Gal4 fused human PPARdelta LBD transfected in HEK293 cells after 24 hrs by luciferase reporter gene assay
pEC50: −log10 of the molar value.
Reported property: pEC50

INSERT INTO measurements (compound, measured_value) VALUES
  ('CC(NC(=O)C(F)(F)F)c1nc(-c2ccc(Oc3ccc(OCc4ccccc4)cc3)cc2)no1 (stereo not given)', 6.82),
  ('CCC(NC(C)=O)c1nc(-c2ccc(Oc3ccc(OCc4ccccc4)cc3)cc2)no1 (stereo not given)', 6.96);

[1] CC(=O)N[C@@H](C)c1nc(-c2ccc(Oc3ccc(OCc4ccccc4)cc3)cc2)no1
[2] COC(=O)NC(C)c1nc(-c2ccc(Oc3ccc(OCc4ccccc4)cc3)cc2)no1 (stereo not given)
[3] CC(=O)NC(C)c1nc(-c2ccc(Oc3ccc(OCc4ccccc4)cc3)cc2)no1 (stereo not given)
Q) Sort by pEC50, descending. Rank the items, then write their labels in that order.
A) 1, 3, 2
(1: 7.64, 3: 7.34, 2: 6.54)
